# Target Under Test: UniProt:P49327
# Sequence (P49327 whole entry): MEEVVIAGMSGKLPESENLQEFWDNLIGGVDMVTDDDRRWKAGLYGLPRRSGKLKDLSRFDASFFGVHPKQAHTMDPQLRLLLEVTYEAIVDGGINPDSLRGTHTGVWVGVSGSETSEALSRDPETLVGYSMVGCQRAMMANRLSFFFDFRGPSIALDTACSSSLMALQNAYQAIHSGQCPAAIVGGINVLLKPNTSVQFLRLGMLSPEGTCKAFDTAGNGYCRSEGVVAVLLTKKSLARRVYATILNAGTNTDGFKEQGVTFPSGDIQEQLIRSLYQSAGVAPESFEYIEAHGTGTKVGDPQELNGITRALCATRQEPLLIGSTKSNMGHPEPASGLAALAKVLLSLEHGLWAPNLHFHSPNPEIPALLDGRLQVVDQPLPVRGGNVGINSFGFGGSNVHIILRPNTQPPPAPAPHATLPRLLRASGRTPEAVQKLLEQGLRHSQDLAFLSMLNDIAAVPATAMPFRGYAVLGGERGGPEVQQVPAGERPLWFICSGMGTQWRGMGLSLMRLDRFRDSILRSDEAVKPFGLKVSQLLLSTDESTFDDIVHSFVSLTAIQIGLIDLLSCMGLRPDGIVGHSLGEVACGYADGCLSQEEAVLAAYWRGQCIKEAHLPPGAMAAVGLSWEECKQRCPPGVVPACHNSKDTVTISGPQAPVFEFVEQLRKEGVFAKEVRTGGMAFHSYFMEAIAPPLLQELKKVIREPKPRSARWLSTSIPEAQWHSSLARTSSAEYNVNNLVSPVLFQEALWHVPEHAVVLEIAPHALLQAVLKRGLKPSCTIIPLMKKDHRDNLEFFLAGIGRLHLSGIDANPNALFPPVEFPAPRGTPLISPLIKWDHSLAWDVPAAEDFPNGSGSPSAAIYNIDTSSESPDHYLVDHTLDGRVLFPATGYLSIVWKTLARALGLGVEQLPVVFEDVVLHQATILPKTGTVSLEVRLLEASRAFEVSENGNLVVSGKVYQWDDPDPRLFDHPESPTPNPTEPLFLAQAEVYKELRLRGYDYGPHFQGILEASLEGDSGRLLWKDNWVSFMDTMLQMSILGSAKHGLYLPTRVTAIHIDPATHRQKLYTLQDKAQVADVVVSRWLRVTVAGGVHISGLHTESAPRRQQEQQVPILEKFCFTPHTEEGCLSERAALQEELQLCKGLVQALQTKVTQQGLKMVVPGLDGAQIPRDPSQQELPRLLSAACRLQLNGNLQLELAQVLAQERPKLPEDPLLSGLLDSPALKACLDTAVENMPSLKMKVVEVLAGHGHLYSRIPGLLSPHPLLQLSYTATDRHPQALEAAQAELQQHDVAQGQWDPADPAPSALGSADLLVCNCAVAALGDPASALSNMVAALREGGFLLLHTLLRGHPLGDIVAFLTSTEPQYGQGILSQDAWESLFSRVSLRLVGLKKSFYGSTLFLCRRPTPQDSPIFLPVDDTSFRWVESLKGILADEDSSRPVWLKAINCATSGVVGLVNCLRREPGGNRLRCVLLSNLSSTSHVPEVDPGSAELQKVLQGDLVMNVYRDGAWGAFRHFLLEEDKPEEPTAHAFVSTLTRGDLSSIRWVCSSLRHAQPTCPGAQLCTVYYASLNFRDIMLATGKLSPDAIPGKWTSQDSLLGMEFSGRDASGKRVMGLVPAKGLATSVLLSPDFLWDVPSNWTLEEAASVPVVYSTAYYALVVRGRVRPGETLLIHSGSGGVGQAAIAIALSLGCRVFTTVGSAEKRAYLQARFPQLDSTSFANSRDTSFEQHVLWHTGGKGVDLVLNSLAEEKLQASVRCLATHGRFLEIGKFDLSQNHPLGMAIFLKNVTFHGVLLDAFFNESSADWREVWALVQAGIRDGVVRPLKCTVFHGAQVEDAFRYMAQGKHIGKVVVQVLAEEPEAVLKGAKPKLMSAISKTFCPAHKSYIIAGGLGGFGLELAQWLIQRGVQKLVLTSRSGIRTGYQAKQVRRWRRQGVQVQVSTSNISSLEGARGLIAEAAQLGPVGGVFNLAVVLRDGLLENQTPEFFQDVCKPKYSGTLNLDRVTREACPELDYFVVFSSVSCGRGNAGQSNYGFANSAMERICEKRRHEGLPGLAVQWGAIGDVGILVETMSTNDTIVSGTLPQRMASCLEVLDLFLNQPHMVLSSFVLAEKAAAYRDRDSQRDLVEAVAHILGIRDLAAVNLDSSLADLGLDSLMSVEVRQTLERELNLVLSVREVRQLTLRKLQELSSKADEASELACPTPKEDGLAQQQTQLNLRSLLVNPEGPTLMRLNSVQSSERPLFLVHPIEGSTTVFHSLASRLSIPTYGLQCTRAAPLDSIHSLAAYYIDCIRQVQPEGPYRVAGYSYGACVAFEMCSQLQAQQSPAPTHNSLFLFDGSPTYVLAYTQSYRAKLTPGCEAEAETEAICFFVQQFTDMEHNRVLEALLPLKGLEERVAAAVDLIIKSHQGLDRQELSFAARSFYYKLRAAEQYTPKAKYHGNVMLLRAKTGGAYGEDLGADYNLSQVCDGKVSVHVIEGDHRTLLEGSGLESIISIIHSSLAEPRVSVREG
# Experimental Protocol: Fatty Acid Synthase (FASN) Inhibition Scintillation Proximity Assay
# Format: biochemical
# Run Conditions: 3H-acetyl-CoA and malonyl-CoA substrates, SPA, mean if tested more than once
Kindly apply the following: label 1 if Human FASN pIC50 is less than 7, label 0 in every other case.

CC1(C)N=C(c2ccc(-c3ccc4cnccc4c3)cc2)N(C[C@@H]2CCN(C(=O)C3CC3)C2)C1=O [Compound 28]	label 0
Cc1cc(-c2ccc3c(c2)ncn3C)ccc1C1=NC(C)(C)C(=O)N1CC1CN(C(=O)C2(O)CC2)C1 [Compound 91]	label 1
Cc1cc(-c2ccc3cc(F)ccc3c2)ccc1C1=NC(C)(C)C(=O)N1C[C@@H]1CCN(C(=O)C2(C)CC2)C1 [Compound 86]	label 0
CC1(C)N=C(c2ccc(-c3ccc4cccc(F)c4c3)cc2)N(C[C@@H]2CCN(C(=O)C3CC3)C2)C1=O [Compound 41]	label 0
CC1(C)N=C(c2ccc(-c3ccc4cnccc4c3)cc2F)N(C[C@@H]2CCN(C(=O)C3CC3)C2)C1=O [Compound 68]	label 0

Exercise: Could you please tell me whether Human FASN pIC50 recorded for CC1(C)N=C(c2ccc(-c3ccc4cc(F)ccc4c3)cc2F)N(CC2CN(C(=O)C3(O)CC3)C2)C1=O [Compound 79] is less than 7?
Solution: label 0

Exercise: Could you please tell me whether Human FASN pIC50 recorded for CC1(C)N=C(c2ccc(-c3ccc4ncccc4c3)cc2)N(C[C@@H]2CCN(C(=O)C3CC3)C2)C1=O [Compound 64] is less than 7?
Solution: label 1

Exercise: Could you please tell me whether Human FASN pIC50 recorded for Cn1cnc2cc(-c3ccc(C4=NC(C)(C)C(=O)N4C[C@@H]4CCN(C(=O)C5(O)CC5)C4)c(F)c3)ccc21 [Compound 89] is less than 7?
Solution: label 0

Exercise: Could you please tell me whether Human FASN pIC50 recorded for CC1(C)N=C(c2ccc(-c3nc4ccccc4o3)cc2F)N(CC2CN(C(=O)C3CC3)C2)C1=O [Compound 52] is less than 7?
Solution: label 1

Exercise: Could you please tell me whether Human FASN pIC50 recorded for Cn1cc(-c2ccc(-c3ccc(C4=NC(C)(C)C(=O)N4CC4CN(C(=O)C5CC5)C4)c(F)c3)cc2)cn1 [Compound 33] is less than 7?
Solution: label 1
